Molecular target: T1, cyno IL-12RB2 overexpressed on 293T cells (Example 2) (cyno, UniProt A0A2K5VNI7 24-860)
T1 construct: whole, on cells
T1 sequence: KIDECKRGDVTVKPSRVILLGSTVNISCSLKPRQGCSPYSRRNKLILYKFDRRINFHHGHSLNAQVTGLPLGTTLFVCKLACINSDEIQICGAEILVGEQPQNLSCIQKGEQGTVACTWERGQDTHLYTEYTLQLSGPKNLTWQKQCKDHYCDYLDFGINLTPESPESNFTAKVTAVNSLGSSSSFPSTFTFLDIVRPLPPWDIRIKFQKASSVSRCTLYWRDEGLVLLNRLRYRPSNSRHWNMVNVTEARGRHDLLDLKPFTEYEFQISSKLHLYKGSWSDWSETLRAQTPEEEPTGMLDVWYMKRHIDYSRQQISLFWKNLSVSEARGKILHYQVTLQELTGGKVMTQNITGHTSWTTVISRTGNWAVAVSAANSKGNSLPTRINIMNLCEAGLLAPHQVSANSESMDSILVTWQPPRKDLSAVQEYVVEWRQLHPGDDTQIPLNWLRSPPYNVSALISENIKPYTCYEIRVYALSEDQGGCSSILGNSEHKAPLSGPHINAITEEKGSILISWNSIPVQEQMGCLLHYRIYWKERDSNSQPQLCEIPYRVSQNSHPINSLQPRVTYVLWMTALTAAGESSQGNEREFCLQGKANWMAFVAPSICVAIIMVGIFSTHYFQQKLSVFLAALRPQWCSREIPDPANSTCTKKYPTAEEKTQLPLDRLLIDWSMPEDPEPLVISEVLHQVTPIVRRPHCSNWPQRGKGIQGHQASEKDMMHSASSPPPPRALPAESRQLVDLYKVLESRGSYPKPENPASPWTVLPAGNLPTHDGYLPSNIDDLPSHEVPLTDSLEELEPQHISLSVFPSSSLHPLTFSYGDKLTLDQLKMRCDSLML
Test: FACS, hybridoma supernatant, 293T
Reported Fold over parental 293T values follow for various binders
Lab book: enter the figure in fold, no units written.

85802_10K12 (antibody, V domains shown, also called 85802_10K12A) VH: QVTLRESGPALVKPTQTLTLTCTFSGFSLSTSGMCVSWIRQPPGKALEWLALIYWDDDKYYSTSLKTRLTISKDTSKNQVVLTMTNMDPVDTATYYCARMRRGIEAFDIWGQGTMVTVFS VL: QSVLTQPPSVSGAPGQRVTISCTGSSSNIGAGYDVHWYQQLPGTAPKLLIFGYSNRPSGVPVRFSGSKSGTSASLAITGLLAEDEADFYCQSFDISLTGWVFGGGTKLTVL; 13
85802_06A17 (antibody, V domains shown, also called 85802_06A17A) VH: EVQLVQSGAEVKKPGESLKISCKGSGYSFTSYWIGWVRQMPGKGLECMGIIYPGDSDTRYSPSFQGQVTISADKSISTAYLQWSSLKASDTAMYYCARHEGAYWYFDLWGRGTLVTVSS VL: QSVLTQPPSVSGAPGQRVTISCTGSSSNIGAGYDVHWYQQLPGTAPKVLIYGNSNRPSGVPDRFSGSKSGTSASLAITGLQAEDEADYYCQSLDTSHVVFGGGTKLTVL; 11
85802_06H06 (antibody, V domains shown, also called 85802_06H06A) VH: QVHLQESGPGLVKPSETLSLTCTVSGGSISYYYWNWIRQPPGKGLEWIASIYNSGNINYNPSLKSRVTISVDTSKNQFSLKLTSVTAADTAVYYCARGGYSYGYFDNWGQGILVTVSS VL: SYELTQPPSVSVSPGQTASITCSGRELGNKYAYWYQQKPGQSPVLVIYEDYKRPSGIPERFSGSNSGNTATLTISGTQAMDEADYYCQAWDSSTVIFGGGTKLTVL; 10

// switching to the query binder
Consider the binder 85802_10M17 (antibody, V domains shown, also called 85802_10M17A) VH: EVLLVESGGGLVKPGGSLRLSCAASGFTFSSYSMNWVRQAPGKGLEWVSSISSSSDYIHYADSVRGRFTISRDNAKNSLYLQMNSLRAEDTAVYYCARSELGFDYWGQGTLVTVSS VL: DIQMTQSPSSVSASVGDRVTITCRASQGISIWLAWYQQKPGKAPKPLIYAASSLQSGVPSRFSGSGSGTDFTLTISSLQPEDFATYYCQQANSFPLTFGGGTKVEIK and give its measured Fold over parental 293T.
12
